# credit: ChEMBL document CHEMBL4270487

- Test system: Ribosome
- Assay Name: Induction of ribosome stalling assessed as induction of stalling of ribosome at ermBL ORF at 50 uM by extension inhibition assay
Activity calls are given as the source filed them. The rule behind the calls is not given here.
API: response.call in active, inactive

[in] Please let me know the test result on file for CO[C@@H]1[C@@H](O[C@@H]2O[C@H](C)[C@@H](O[C@H]3C[C@@](C)(O)[C@@H](OC(=O)CC(C)C)[C@H](C)O3)[C@H](N(C)C)[C@H]2O)[C@@H](CC=O)C[C@@H](C)[C@@H](O)/C=C/C=C/C[C@@H](C)OC(=O)C[C@H]1OC(C)=O .
[out] active

[in] What was the test verdict on CC[C@H]1OC(=O)[C@H](C)[C@@H](O[C@H]2C[C@@](C)(OC)[C@@H](O)[C@H](C)O2)[C@H](C)[C@@H](O[C@@H]2O[C@H](C)C[C@H](N(C)C)[C@H]2O)[C@](C)(O)C[C@@H](C)C(=O)[C@H](C)[C@@H](O)[C@]1(C)O ?
[out] active

[in] How was CC[C@H]1OC(=O)C[C@@H](O)[C@H](C)[C@@H](O[C@@H]2O[C@H](C)[C@@H](O[C@H]3C[C@@](C)(O)[C@@H](O)[C@H](C)O3)[C@H](N(C)C)[C@H]2O)[C@@H](CC=O)C[C@@H](C)C(=O)/C=C/C(C)=C/[C@@H]1CO[C@@H]1O[C@H](C)[C@@H](O)[C@@H](OC)[C@H]1OC classified in this test?
[out] active

[in] Check the results log: what was the call for C[C@@H]1CCCCCCCCC[C@H](O)C(=O)C[C@@H](SC[C@@H](O)C(=O)O)C(=O)O1 ?
[out] inactive

---

- System: Staphylococcus aureus
- Assay Name: Antibiotic activity against Staphylococcus aureus 13709 by broth microdilution assay or Alamar blue dye based colorimetric assay
- Format: functional
Observed Property: MIC

[in] Note MIC for the molecule shown: C[C@H]1OC(=O)/C=C/[C@@H](O)[C@@H](O)CCCCCCCC[C@@H]1O
[out] 64 µM

[in] Using known records, supply MIC for C[C@H]1OC(=O)/C=C/C(=O)[C@@H](OC(=O)CCC(=O)O)CCCCCCCC[C@@H]1O
[out] 16 µM

[in] Read the entry C[C@@H]1CCCCCCCCC[C@H](OC(=O)CCC(=O)O)C(=O)C[C@@H](SC[C@@H](O)C(=O)O)C(=O)O1 and write its reported MIC.
[out] 8 µM

[in] Annotate the molecule C[C@@H]1CCCCCCCCC[C@H](OC(=O)CCC(=O)O)C(=O)/C=C/C(=O)O1 with its measured MIC.
[out] 8 µM

[in] In one line, give reported MIC of the entry C[C@@H]1CCCCCCCCC[C@H](O)C(=O)C[C@@H](SC[C@@H](O)C(=O)O)C(=O)O1 .
[out] 2 µM

[in] Determine from records and report MIC for C[C@@H]1CC(O)CCCCCCC[C@H](OC(=O)CCC(=O)O)C(=O)/C=C/C(=O)O1 (stereo partly specified)
[out] 32 µM

---

Assignment: determine reported MIC for the given molecules.
- Tested on: Streptococcus pyogenes
- Assay Name: Antibiotic activity against Streptococcus pyogenes by broth microdilution assay or Alamar blue dye based colorimetric assay
- Assay type: functional
# output: bare number, implied unit µM

[in] Report MIC from Streptococcus pyogenes testing of C[C@@H]1CCCCCCCCC[C@H](O)C(=O)C[C@@H](SC[C@@H](O)C(=O)O)C(=O)O1
[out] 8

[in] # return MIC of C[C@@H]1CC(O)CCCCCCC[C@H](OC(=O)CCC(=O)O)C(=O)/C=C/C(=O)O1 (stereo partly specified) (system: Streptococcus pyogenes)
[out] 125

[in] Return reported MIC for target or system Streptococcus pyogenes, item C[C@@H]1CCCCCCCCC[C@H](OC(=O)CCC(=O)O)C(=O)C[C@@H](SC[C@@H](O)C(=O)O)C(=O)O1 .
[out] 250

[in] Tell me its MIC on Streptococcus pyogenes: C[C@@H]1CCCCCCCCC[C@H](OC(=O)CCC(=O)O)C(=O)/C=C/C(=O)O1
[out] 125

[in] Check Streptococcus pyogenes data and give MIC for C[C@H]1OC(=O)/C=C/C(=O)[C@@H](OC(=O)CCC(=O)O)CCCCCCCC[C@@H]1O .
[out] 64

[in] Give Streptococcus pyogenes MIC for the following molecule: C[C@H]1OC(=O)/C=C/[C@@H](O)[C@@H](O)CCCCCCCC[C@@H]1O
[out] 500

---

- Test system: Nakaseomyces glabratus
- Assay Name: Antibiotic activity against Candida glabrata by broth microdilution assay or Alamar blue dye based colorimetric assay
- Type: functional
Give MIC for every item shown.

[in] Give MIC for the following compound: C[C@H]1OC(=O)/C=C/[C@@H](O)[C@@H](O)CCCCCCCC[C@@H]1O
[out] > 1000 µM

[in] State its MIC for this compound: C[C@@H]1CC(O)CCCCCCC[C@H](OC(=O)CCC(=O)O)C(=O)/C=C/C(=O)O1 (stereo partly specified)
[out] > 1000 µM

[in] Find the measured MIC of C[C@@H]1CCCCCCCCC[C@H](OC(=O)CCC(=O)O)C(=O)C[C@@H](SC[C@@H](O)C(=O)O)C(=O)O1 and report it.
[out] 64 µM

[in] Check the records and state MIC for C[C@H]1OC(=O)/C=C/C(=O)[C@@H](OC(=O)CCC(=O)O)CCCCCCCC[C@@H]1O
[out] 64 µM

[in] Give MIC for the following compound: C[C@@H]1CCCCCCCCC[C@H](O)C(=O)C[C@@H](SC[C@@H](O)C(=O)O)C(=O)O1
[out] 16 µM

[in] In one line, give reported MIC of the entry C[C@@H]1CCCCCCCCC[C@H](OC(=O)CCC(=O)O)C(=O)/C=C/C(=O)O1 .
[out] 125 µM

---

For each record, write down the corresponding MIC.
- Test system: Staphylococcus aureus
- Assay Name: Antibiotic activity against methicillin-resistant Staphylococcus aureus isolate CAIRD148 by broth microdilution assay or Alamar blue dye based colorimetric assay
- Type: functional

[in] Quick one: give measured MIC for C[C@H]1c2cccc(O)c2C(=O)C2=C(O)[C@]3(O)C(=O)C(C(N)=O)=C(O)[C@@H](N(C)C)[C@@H]3[C@@H](O)[C@@H]21.O
[out] 0.25 µg/mL

[in] Let me know recorded MIC for C[C@H]1COc2c(N3CCN(C)CC3)c(F)cc3c(=O)c(C(=O)O)cn1c23.C[C@H]1COc2c(N3CCN(C)CC3)c(F)cc3c(=O)c(C(=O)O)cn1c23.O , thanks.
[out] > 16 µg/mL

[in] Indicate the recorded MIC value for this compound: C[C@@H]1CCCCCCCCC[C@H](O)C(=O)C[C@@H](SC[C@@H](O)C(=O)O)C(=O)O1
[out] 2 µM

[in] Name the recorded MIC of the compound listed here: CC[C@H]1OC(=O)[C@H](C)[C@@H](O[C@H]2C[C@@](C)(OC)[C@@H](O)[C@H](C)O2)[C@H](C)[C@@H](O[C@@H]2O[C@H](C)C[C@H](N(C)C)[C@H]2O)[C@](C)(O)C[C@@H](C)C(=O)[C@H](C)[C@@H](O)[C@]1(C)O
[out] > 32 µg/mL

[in] Consider the compound C[C@@H]1CCCCCCCCC[C@H](OC(=O)CCC(=O)O)C(=O)/C=C/C(=O)O1 . State its measured MIC.
[out] 16 µM

[in] Give MIC for C[C@@H]1CCCCCCCCC[C@H](OC(=O)CCC(=O)O)C(=O)C[C@@H](SC[C@@H](O)C(=O)O)C(=O)O1
[out] 16 µM

[in] Supply measured MIC of Cc1nnc(SCC2=C(C(=O)O)N3C(=O)[C@@H](NC(=O)Cn4cnnn4)[C@H]3SC2)s1 in your reply.
[out] 256 µg/mL

[in] Answer with the recorded MIC of CCC[C@@H]1C[C@@H](C(=O)N[C@@H]([C@H]2O[C@H](SC)[C@H](O)[C@@H](O)[C@H]2O)[C@H](C)Cl)N(C)C1 only.
[out] > 16 µg/mL
